// provenance: ChEMBL document CHEMBL1201862

system: Malme-3M; assay: NCI tumour cell line growth inhibition, 48 h
Active and inactive are the calls of the source. Rule as the data show it: active = GI50 up to about 1.1 µM and inactive = higher.
Outcome codes: label 1 (active), label 0 (inactive)

[[record]]
compound = "CC1=CC(=O)[C@@H](O)[C@]2(C)[C@H]3[C@@]4(O)OC[C@@]35[C@@H](C[C@@H]12)OC(=O)C(OC(=O)CC1=CCCC1)[C@H]5[C@@H](C)[C@H]4O (stereo partly specified)"
answer_label = "label 1"

[[record]]
compound = "CC1=NN(C(=O)CC(=O)NC(=O)/C=C\\c2ccccc2)C(=O)C1/N=N/c1ccc([N+](=O)[O-])cc1 (stereo unspecified)"
answer_label = "label 0"

[[record]]
compound = "Cc1ccc(NC(=S)C#N)c(C)c1"
answer_label = "label 0"

[[record]]
compound = "S=C(Nc1cccc(C2(N3CCCCC3)CCCCC2)c1)Nc1cccc(C2(N3CCCCC3)CCCCC2)c1"
answer_label = "label 0"

[[record]]
compound = "O=c1[nH]c2c(nc1NC13CC4CC(CC(C4)C1)C3)c(=O)oc1ccccc12"
answer_label = "label 0"

[[record]]
compound = "Cc1nc(-n2nc(-c3ccccc3)cc2-c2ccccc2)sc1C(=O)/C=C/c1ccc(Cl)cc1"
answer_label = "label 0"

[[record]]
compound = "COc1cc([C@@H]2c3cc4c(cc3[C@@H](NC(=O)c3cccc([N+](=O)[O-])c3)C3COC(=O)[C@@H]32)OCO4)cc(OC)c1O (stereo partly specified)"
answer_label = "label 1"

[[record]]
compound = "c1cc(CSSCc2ccncc2)ccn1"
answer_label = "label 0"

[[record]]
compound = "CCOc1ccccc1NC(=O)CCc1n[nH]c(=S)o1"
answer_label = "label 0"

[[record]]
compound = "COc1ccc(N2C(=O)C(=O)N(c3ccccc3[N+](=O)[O-])C2=S)cc1"
answer_label = "label 0"

[[record]]
compound = "N=C(N)N/N=C/c1c(-c2ccc(Cl)cc2)nc2sccn12"
answer_label = "label 0"

[[record]]
compound = "O=C1CSc2cc([N+](=O)[O-])ccc2N1"
answer_label = "label 0"

[[record]]
compound = "CC1(C)O[C@@H]2COC(=O)[C@@H]2O1"
answer_label = "label 0"

[[record]]
compound = "O=C(O)c1ccc(Nc2nc3ccccc3nc2-c2cccs2)cc1"
answer_label = "label 0"

[[record]]
compound = "CN1CCCC2[C@@H]3CCC4=C(O)C(=O)CC[C@]4(C)C3CC[C@@]21C (stereo partly specified)"
answer_label = "label 0"

[[record]]
compound = "CC(=O)/N=C1/N(/C=C2\\C(=O)Oc3ccccc3C2=O)C(=O)/C(=C/c2cccc(Cl)c2Cl)N1C"
answer_label = "label 0"

[[record]]
compound = "O=C1CC(Br)c2c(Cl)sc(Cl)c21 (stereo unspecified)"
answer_label = "label 0"

[[record]]
compound = "CCCCCCC1=NOC(C(c2cc[nH]c2)N(C)[C@H](C(=O)OC)C(C)C)C1 (stereo partly specified)"
answer_label = "label 0"

[[record]]
compound = "C=CCOC1=C2CC[C@H](O)[C@@]2(C)CCC1=O"
answer_label = "label 0"

[[record]]
compound = "CCOP(=O)(OCC)/C(C#N)=C(\\C)c1ccco1"
answer_label = "label 0"

[[record]]
compound = "COC(=O)C12C3C4C1C1C2C3C41C(=O)OC(C)(C)C (stereo unspecified)"
answer_label = "label 0"

